What melting point was measured for each of the following?

These solved cases illustrate the format of a correct answer.
>>> observed_result("COc1c(C(=O)NNS(=O)(=O)c2cccc(C)c2)oc2c(OC)cccc12 (hydrate or solvate)")
"179.4 to 180.9 °C"
>>> observed_result("O=C(NNS(=O)(=O)c1ccc(F)c(F)c1)c1cc2cc(Cl)ccc2o1")
"193.8 to 195 °C"
>>> observed_result("Cc1c(C(=O)NNS(=O)(=O)c2ccccc2)oc2ccccc12 (hydrate or solvate)")
"221.6 to 222.2 °C"
>>> observed_result("O=C(NNS(=O)(=O)c1cc(Cl)cc(Cl)c1)c1ccc2oc3ccccc3c2c1")
"231 to 233 °C"
>>> observed_result("COc1c(C(=O)NNS(=O)(=O)c2ccc(F)cc2)oc2c(OC)cccc12 (hydrate or solvate)")
"190.9 to 191.1 °C"
>>> observed_result("O=C(NNS(=O)(=O)c1cccc(Cl)c1)c1cc2cc(Cl)ccc2o1")
"202.9 to 205.2 °C"

Please state, for each entry, its recorded melting point.
1. CN(C)c1ccc2oc(C(=O)NNS(=O)(=O)c3ccccc3)cc2c1.Cl
2. O=C(NNS(=O)(=O)c1ccccc1)c1ccc2[nH]ccc2c1 (hydrate or solvate)
3. Cc1cccc(S(=O)(=O)NNC(=O)c2ccc3ncccc3c2)c1 (hydrate or solvate)
4. O=C(NNS(=O)(=O)c1ccccc1)c1ccc2c(c1)OCO2 (hydrate or solvate)
5. CCOc1cccc2cc(C(=O)NNS(=O)(=O)c3ccccc3)oc12
6. O=C(NNS(=O)(=O)c1ccccc1)c1cc2cc([N+](=O)[O-])ccc2[nH]1
7. Nc1ccc2[nH]c(C(=O)NNS(=O)(=O)c3ccccc3)cc2c1
8. CS(=O)(=O)Nc1ccc2oc(C(=O)NNS(=O)(=O)c3ccccc3)cc2c1

Solution:
1. 218.3 to 218.9 °C
2. 209 to 211 °C
3. 234 to 234.6 °C
4. 156 to 158 °C
5. 223 to 224 °C
6. 268.2 to 269.1 °C
7. 240.2 to 241.1 °C
8. 255.4 to 256.1 °C

Please state, for each entry, its recorded melting point.
1. COc1cccc2cc(C(=O)NNS(=O)(=O)c3ccccc3)oc12
2. CCCCCc1ccc(S(=O)(=O)Nc2ccc3oc(C(=O)NNS(=O)(=O)c4ccccc4)cc3c2)cc1
3. O=C(NNS(=O)(=O)c1ccccc1)c1cc2cc(NS(=O)(=O)c3ccccc3)ccc2o1

Solution:
164 to 165 °C
169 to 169.8 °C
261.5 to 261.8 °C
